Data provenance is ChEMBL document CHEMBL5260830.

system: GABA-A receptor; anion channel (Homo sapiens) (UniProt P14867+P47870+P18507+P28472+P48169+Q99928+Q9UN88+P34903+O00591+O14764+Q8N1C3+P18505+P78334+P47869+P31644+Q16445)
protocol_description: Potentiation of NAS mediated GABA (unknown origin) tonic effect assessed as fold potentiation
Assay type: protein-complex assay
condition_details: filed as activator
Checkbox rule: fold change (FC) lower than 2 = True; fold change (FC) not lower than 2 = False.

compound | label
CC(=O)[C@H]1CC[C@H]2[C@@H]3CC[C@H]4C[C@](C)(O)CC[C@]4(C)[C@H]3CC[C@]12C [GANAXOLONE] | False

Prompt: Answer whether the compound CC(=O)[C@H]1CC[C@H]2[C@@H]3CC[C@H]4C[C@@H](O)CC[C@]4(C)[C@H]3CC[C@]12C [SEPRANOLONE] has fold change (FC) strictly less than 2
Response: True

Prompt: Answer whether the compound `C[C@]12CC[C@@H](O)C[C@@H]1CC[C@@H]1[C@@H]2CC[C@]2(C)[C@@H](C(=O)CO)CC[C@@H]12` has fold change (FC) strictly less than 2
Response: False

Prompt: Answer whether the compound CC(=O)[C@H]1CC[C@H]2[C@@H]3CC[C@H]4C[C@H](O)CC[C@]4(C)[C@H]3CC[C@]12C [BREXANOLONE] has fold change (FC) strictly less than 2
Response: False

Prompt: Answer whether the compound CC(=O)[C@H]1CC[C@H]2[C@@H]3CC[C@@H]4C[C@H](O)CC[C@]4(C)[C@H]3CC[C@]12C [ELTANOLONE] has fold change (FC) strictly less than 2
Response: False
